system: CAKI-1 renal; test: NCI tumour cell line growth inhibition, 48 h
So I've got a bunch of molecules here, and I need their TGI values.

// lookup TGI | system=CAKI-1 renal | key= CCOc1cc(C2SCC(=O)N2c2ccc(Oc3ccc(Cl)cc3)c(Cl)c2)ccc1O (centres undefined) 32.6 µM

// lookup TGI | system=CAKI-1 renal | key= CC(C)C1C(=O)N(c2c(F)c(F)c(F)c(F)c2F)C(=S)N1CCS(=O)c1ccccc1 (centres undefined) 9.86 µM

// lookup TGI | system=CAKI-1 renal | key= COC(=O)C(C(=O)C(=O)Nc1c(C)cccc1C)c1cnc2ccccc2n1 (centres undefined) > 100 µM

// lookup TGI | system=CAKI-1 renal | key= CC(C)c1[nH]nc(C(N)=O)c1N=NN(C)C 65.4 µM

// lookup TGI | system=CAKI-1 renal | key= COc1ccc(C2N(c3ccc(F)cc3)C(=O)N3C(c4ccc(OC)cc4)N(c4ccc(F)cc4)C(=O)N23)cc1 (centres undefined) > 100 µM

// lookup TGI | system=CAKI-1 renal | key= CC(=O)O[C@H]1C(=O)[C@@]2(C)C(C(OC(=O)c3ccccc3)[C@]3(O)C[C@H](OC(=O)C(OC(=O)CCCC(=O)NCCCN(C)C)C(NC(=O)c4ccccc4)c4ccccc4)C(C)=C1C3(C)C)C1(OC(C)=O)COC1C[C@@H]2O (some centres undefined) > 100 µM

// lookup TGI | system=CAKI-1 renal | key= CCOC(=O)/C(=C/N1CCN(C(=O)c2ccco2)C1=S)C(=O)c1ccccc1 > 50 µM

// lookup TGI | system=CAKI-1 renal | key= COc1nc2[nH]ccc2c(=O)[nH]1 > 100 µM

// lookup TGI | system=CAKI-1 renal | key= OCc1cn(C(c2ccccc2)(c2ccccc2)c2ccccc2)cn1 > 100 µM

---

So I've got a bunch of molecules here, and I need their TGI values.
system: LOX IMVI melanoma; assay: NCI tumour cell line growth inhibition, 48 h

// lookup TGI | system=LOX IMVI melanoma | key= CCCCCN(CCCCC)C(=O)[C@@H](CCC(=O)O)NC(=O)c1cc2ccccc2[nH]1 > 100 µM

// lookup TGI | system=LOX IMVI melanoma | key= N#CC(C(=O)c1cccnc1Cl)c1nc2cc(C(F)(F)F)ccc2s1 (stereo not drawn) > 100 µM

// lookup TGI | system=LOX IMVI melanoma | key= O=C(O[C@@H](/C=C/c1ccccc1)P1(=O)N(Cc2ccccc2)[C@H]2CCCC[C@@H]2N1Cc1ccccc1)c1ccccc1 14 µM

// lookup TGI | system=LOX IMVI melanoma | key= N.N.N.N.N.[Co+3].[I-].[N-]=[N+]=[N-] > 100 µM

// lookup TGI | system=LOX IMVI melanoma | key= CC1=Nc2ccccc2S/C1=C(/C)NNS(=O)(=O)c1ccc(C)cc1 > 100 µM

// lookup TGI | system=LOX IMVI melanoma | key= O=C(O)CN1C=C(C(=O)c2cc3ccccc3n2S(=O)(=O)c2ccccc2)CCC1 > 100 µM

// lookup TGI | system=LOX IMVI melanoma | key= CC(C)(CN1CCCCC1)C(=O)/C=C/c1ccc(/C=C/C(=O)C(C)(C)CN2CCCCC2)cc1 0.856 µM

// lookup TGI | system=LOX IMVI melanoma | key= O=C(Oc1cccc2cccnc12)c1cc2c(cc1Cl)SC(N(c1ccc(F)cc1)S(=O)(=O)c1ccc(Br)s1)=NS2(=O)=O 64.2 µM

// lookup TGI | system=LOX IMVI melanoma | key= O=c1c2cc(I)ccc2nc(SCc2nncs2)n1Cc1ccccc1 > 100 µM

// lookup TGI | system=LOX IMVI melanoma | key= N#Cc1c(-c2ccc(Cl)c(Cl)c2)c(-c2ccc(Cl)c(Cl)c2)nn(CC(=O)O)c1=O > 100 µM

// lookup TGI | system=LOX IMVI melanoma | key= CC[C@H](C)[C@H]1NC(=O)[C@@H](NC(=O)[C@@H](CC(C)C)N(C)C(=O)C2CCCN2C(=O)[C@H](C)O)[C@@H](C)OC(=O)[C@H](Cc2ccc(OC)cc2)N(C)C(=O)[C@@H]2CCCN2C(=O)[C@H](CCCCNC(=O)OCc2ccccc2)NC(=O)[C@H](C)C(=O)[C@H](C(C)C)OC(=O)C[C@@H]1O (stereo partly drawn) > 25 µM

// lookup TGI | system=LOX IMVI melanoma | key= CCOC(=O)c1ccc(NC(=O)Nc2nncs2)cc1 7.67 µM

// lookup TGI | system=LOX IMVI melanoma | key= COc1nc2[nH]ccc2c(=O)[nH]1 > 100 µM

// lookup TGI | system=LOX IMVI melanoma | key= CCN(CC)c1cccc2c1/C(=N/O)CCCC2 > 100 µM

// lookup TGI | system=LOX IMVI melanoma | key= Cc1cc(S(=O)(=O)Nc2nc3ccccc3o2)c(SCc2ccccc2)cc1Cl 34.8 µM

// lookup TGI | system=LOX IMVI melanoma | key= OCCN1CCN(CCCN2c3ccccc3Sc3ccc(Cl)cc32)CC1 3.09 µM

// lookup TGI | system=LOX IMVI melanoma | key= Cc1ccc(NC(Nc2ccc(C)cc2C)=C(C(Cl)=C(Cl)Cl)[N+](=O)[O-])c(C)c1 20.4 µM

// lookup TGI | system=LOX IMVI melanoma | key= COc1ccc(C2N(c3ccc(F)cc3)C(=O)N3C(c4ccc(OC)cc4)N(c4ccc(F)cc4)C(=O)N23)cc1 (stereo not drawn) > 100 µM

---

So I've got a bunch of compounds here, and I need their TGI values.
system: ACHN renal; experiment: NCI tumour cell line growth inhibition, 48 h

// lookup TGI | system=ACHN renal | key= COC(=O)C1CCc2c1c(=O)n1c([nH]c3ccccc31)c2C#N (centres undefined) > 100 µM

// lookup TGI | system=ACHN renal | key= C[N+]1(CCC(=O)c2ccco2)CC2CCC(CC2)C1 (centres undefined) > 100 µM

// lookup TGI | system=ACHN renal | key= COc1cc2oc(=O)ccc2cc1C(=O)CC(C)C > 100 µM

// lookup TGI | system=ACHN renal | key= O=c1cc(N=Nc2ccc(Br)cc2)[nH]c(=S)[nH]1 40.8 µM

// lookup TGI | system=ACHN renal | key= O=c1ccc2nc3cc(Br)ccc3sc-2c1 > 100 µM

// lookup TGI | system=ACHN renal | key= Cc1ccc(NC(Nc2ccc(C)cc2C)=C(C(Cl)=C(Cl)Cl)[N+](=O)[O-])c(C)c1 28.5 µM

// lookup TGI | system=ACHN renal | key= Cc1nc([P+](c2ccccc2)(c2ccccc2)c2ccccc2)c(Sc2sc(-c3ccccc3)nc2[P+](c2ccccc2)(c2ccccc2)c2ccccc2)o1 4.92 µM

// lookup TGI | system=ACHN renal | key= O=C(O[C@@H](/C=C/c1ccccc1)P1(=O)N(Cc2ccccc2)[C@H]2CCCC[C@@H]2N1Cc1ccccc1)c1ccccc1 6.91 µM

// lookup TGI | system=ACHN renal | key= COC[C@@H](N=C1NC(=O)/C(=C/c2ccc3ncccc3c2)S1)c1ccccc1 > 25 µM

// lookup TGI | system=ACHN renal | key= CN(c1ncccc1CNc1nc(Nc2ccc3c(c2)CC(=O)N3)ncc1C(F)(F)F)S(C)(=O)=O > 100 µM

// lookup TGI | system=ACHN renal | key= CC(C)(O)/C=C\P(=O)(O)O > 100 µM

// lookup TGI | system=ACHN renal | key= CCCNC(=S)/N=C/c1c(O)cc(C)oc1=O > 100 µM

// lookup TGI | system=ACHN renal | key= COc1cc(/C=C\c2cc(OC)c(OC)c(OC)c2)cc(N/C=C\C(=O)c2ccc(OC(F)(F)F)cc2)c1OC > 100 µM

// lookup TGI | system=ACHN renal | key= COC(=O)CC(NC(=O)OCc1ccccc1)C(C(C)=O)C(=O)OCc1ccccc1 (centres undefined) > 31.6 µM

// lookup TGI | system=ACHN renal | key= O=S(=O)(NCCCNc1nccc(-c2c(-c3ccc(O)cc3)nc3sccn23)n1)c1ccc(F)cc1 > 100 µM

// lookup TGI | system=ACHN renal | key= Cc1ccccc1N=Nc1c(O)c(S(=O)(=O)O)cc2cc(S(=O)(=O)O)ccc12 > 100 µM

// lookup TGI | system=ACHN renal | key= O=C(N/C(=C\c1ccc(Cl)cc1)c1nc2ccccc2[nH]1)c1ccccc1 80.5 µM

// lookup TGI | system=ACHN renal | key= COc1ccc(/C=C(/C#N)C(N)=O)c(OC)c1 > 100 µM

// lookup TGI | system=ACHN renal | key= CC(=O)OCC1OC(n2cc(F)c(=O)[nH]c2=O)C(NC(=O)N(CCCl)N=O)C(OC(C)=O)C1OC(C)=O (centres undefined) > 100 µM

// lookup TGI | system=ACHN renal | key= O=C(/C=C/c1cc(Cl)cc(Cl)c1O)c1cccc(O)c1 > 100 µM

// lookup TGI | system=ACHN renal | key= Nc1ncnc2c1sc1nc3ccccc3n12 > 100 µM

// lookup TGI | system=ACHN renal | key= O=C1NC(=O)C(F)(n2cc(F)c(=O)[nH]c2=O)C(O)N1 (centres undefined) > 10 µM

// lookup TGI | system=ACHN renal | key= CC(C)=CCC[C@]1(C)C=Cc2c(O)c3c(c(CC=C(C)C)c2O1)O[C@]12C(=C[C@@H]4CC1C(C)(C)O[C@@]2(C/C=C(/C)C(=O)O)C4=O)C3=O 1.37 µM

// lookup TGI | system=ACHN renal | key= CCCCCCCCCCCCCCCCCc1cccc(OCOCCOC)c1C(=O)O 35.2 µM

// lookup TGI | system=ACHN renal | key= CN(C)C=Nc1ccn(CCO)c(=O)n1 > 100 µM

// lookup TGI | system=ACHN renal | key= CCOC(=O)c1ccc(NC(=O)Nc2nncs2)cc1 23.9 µM

// lookup TGI | system=ACHN renal | key= Cc1cn([C@@H]2C[C@@H]2CO)c(=O)[nH]c1=O > 100 µM

// lookup TGI | system=ACHN renal | key= COP(=O)(OC)C(=O)N1N(c2ccc([N+](=O)[O-])cc2)C(=O)C(C)NC1(NNc1ccc([N+](=O)[O-])cc1)P(=O)(OC)OC (centres undefined) > 100 µM

// lookup TGI | system=ACHN renal | key= Nc1nc2c3nc(Nc4ccccc4)sc3nc(=S)n2c2sc(Nc3ccccc3)nc12 > 100 µM

// lookup TGI | system=ACHN renal | key= CC(=O)O[C@H]1C(=O)[C@@]2(C)C(C(OC(=O)c3ccccc3)[C@]3(O)C[C@H](OC(=O)C(OC(=O)CCCC(=O)NCCCN(C)C)C(NC(=O)c4ccccc4)c4ccccc4)C(C)=C1C3(C)C)C1(OC(C)=O)COC1C[C@@H]2O (some centres undefined) > 100 µM

// lookup TGI | system=ACHN renal | key= Nc1ncnc2c1ncn2[C@]1(CO)C=C(CO)C(O)C1O (some centres undefined) > 100 µM

// lookup TGI | system=ACHN renal | key= CC(C)OP(=O)(OC(C)C)/C(Cl)=N/Nc1ccc([N+](=O)[O-])cc1 > 100 µM

// lookup TGI | system=ACHN renal | key= CC(NC(=O)/C(=C/c1ccccc1)NC(=O)c1ccccc1)C(=O)O (centres undefined) > 100 µM

// lookup TGI | system=ACHN renal | key= O=C(O)CCCC(=O)Nn1c(Cc2ccc(Cl)cc2)n[nH]c1=O > 100 µM

// lookup TGI | system=ACHN renal | key= C=C1CC[C@@H]2[C@](C)(COC(C)=O)[C@H](OC(C)=O)CC[C@@]2(C)[C@@H]1CC(Nc1ccc(S(=O)(=O)NC(C)=O)cc1)C1=CCOC1=O (some centres undefined) 16.5 µM

// lookup TGI | system=ACHN renal | key= O=c1[nH]c2ccccc2c(=O)n1/N=C/c1ccc(O)cc1 > 100 µM

// lookup TGI | system=ACHN renal | key= c1ccc2sc(SCCSc3nc4ccccc4s3)nc2c1 > 100 µM

// lookup TGI | system=ACHN renal | key= NNC(=S)N/N=C(\C(=O)Nc1cccc(O)c1)C1C(=O)NC(=S)NC1=O > 100 µM

// lookup TGI | system=ACHN renal | key= CC(C)(C)OC(=O)n1c2ccccc2c2c(=O)nc(N3CCCCC3)sc21 > 100 µM
